Target: EcSecA (Escherichia coli, UniProt P10408)
Sequence (P10408 whole entry): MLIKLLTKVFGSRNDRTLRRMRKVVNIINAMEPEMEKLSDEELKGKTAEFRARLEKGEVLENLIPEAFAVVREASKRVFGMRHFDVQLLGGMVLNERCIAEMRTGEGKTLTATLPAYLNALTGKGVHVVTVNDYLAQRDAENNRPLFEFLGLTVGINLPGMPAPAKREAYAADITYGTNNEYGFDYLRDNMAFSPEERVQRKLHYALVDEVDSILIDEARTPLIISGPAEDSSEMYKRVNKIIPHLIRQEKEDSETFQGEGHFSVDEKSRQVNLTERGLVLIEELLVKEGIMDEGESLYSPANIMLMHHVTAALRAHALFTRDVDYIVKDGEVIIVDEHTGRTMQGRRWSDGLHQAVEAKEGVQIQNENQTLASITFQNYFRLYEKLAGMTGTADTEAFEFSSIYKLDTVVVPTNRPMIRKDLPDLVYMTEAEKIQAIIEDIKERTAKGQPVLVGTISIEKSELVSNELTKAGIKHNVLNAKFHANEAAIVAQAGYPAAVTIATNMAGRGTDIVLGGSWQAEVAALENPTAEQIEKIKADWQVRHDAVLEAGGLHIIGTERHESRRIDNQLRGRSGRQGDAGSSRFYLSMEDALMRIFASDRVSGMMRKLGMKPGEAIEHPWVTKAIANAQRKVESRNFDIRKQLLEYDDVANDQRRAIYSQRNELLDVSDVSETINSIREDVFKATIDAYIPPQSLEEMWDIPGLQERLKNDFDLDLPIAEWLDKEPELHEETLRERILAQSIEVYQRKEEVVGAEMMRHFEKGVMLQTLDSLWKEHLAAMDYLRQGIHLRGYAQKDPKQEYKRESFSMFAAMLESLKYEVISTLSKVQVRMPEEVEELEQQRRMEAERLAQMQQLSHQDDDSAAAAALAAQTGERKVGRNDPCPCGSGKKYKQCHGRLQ
Experiment: SecA ion channel activity in Xenopus oocytes
Format: cell-based
Settings: read-out: IC50 inhibition of SecA channel activity in oocytes; EcSecA, RE-13 memb +SecYEG-DF•C
value.kind: pIC50
Scale: negative log10 of molar concentration, which is what pIC50 denotes.

Request: pIC50, test system EcSecA (Escherichia coli, UniProt P10408), entry O=C1OC2(c3cc(I)c(O)c(I)c3Oc3c2cc(I)c(O)c3I)c2c(Cl)c(Cl)c(Cl)c(Cl)c21 [RB, Rose Bengal]
5.36

###

Molecular target: BsSecA (Bacillus subtilis)
Sequence (P28366 whole entry): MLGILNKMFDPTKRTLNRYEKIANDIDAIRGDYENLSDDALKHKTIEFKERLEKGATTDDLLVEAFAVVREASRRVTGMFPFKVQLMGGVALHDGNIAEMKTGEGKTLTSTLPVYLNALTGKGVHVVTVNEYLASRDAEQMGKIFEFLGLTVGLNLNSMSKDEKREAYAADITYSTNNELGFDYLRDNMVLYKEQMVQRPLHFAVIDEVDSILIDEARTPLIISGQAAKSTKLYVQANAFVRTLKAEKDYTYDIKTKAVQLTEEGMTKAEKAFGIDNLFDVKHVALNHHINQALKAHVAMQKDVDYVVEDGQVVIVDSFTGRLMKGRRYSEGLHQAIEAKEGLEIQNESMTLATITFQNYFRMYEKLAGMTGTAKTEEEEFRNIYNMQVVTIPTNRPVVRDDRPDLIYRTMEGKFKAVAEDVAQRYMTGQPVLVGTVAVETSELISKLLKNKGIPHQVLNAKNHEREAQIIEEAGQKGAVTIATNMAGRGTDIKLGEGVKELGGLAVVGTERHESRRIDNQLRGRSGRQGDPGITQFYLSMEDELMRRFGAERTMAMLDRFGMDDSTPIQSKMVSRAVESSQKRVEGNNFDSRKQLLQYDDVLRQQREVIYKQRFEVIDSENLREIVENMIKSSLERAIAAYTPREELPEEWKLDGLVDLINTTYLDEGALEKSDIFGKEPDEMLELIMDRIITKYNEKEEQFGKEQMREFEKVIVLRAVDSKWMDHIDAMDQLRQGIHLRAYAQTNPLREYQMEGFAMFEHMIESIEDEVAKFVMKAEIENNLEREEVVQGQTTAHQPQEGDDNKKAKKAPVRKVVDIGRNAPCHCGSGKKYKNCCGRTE
Test: SecA ion channel activity in Xenopus oocytes
Assay type: cell-based
Conditions: read-out: IC50 inhibition of SecA channel activity in oocytes; BsSecA, RE-13 memb +SecYEG-DF•C
value.kind: IC50 (µM)
Hi! Could you send only the number? It should be in µM, unit omitted.

// IC50 lookup, key: O=C1OC2(c3cc(I)c(O)c(I)c3Oc3c2cc(I)c(O)c3I)c2c(Cl)c(Cl)c(Cl)c(Cl)c21
5.2
